# assay-target: GRID2IP_2, A4D2P6
# Sequence (A4D2P6 272-370): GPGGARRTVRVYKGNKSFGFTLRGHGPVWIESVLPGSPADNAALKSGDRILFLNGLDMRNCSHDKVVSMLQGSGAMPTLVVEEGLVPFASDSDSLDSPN
# assay-text: holdup assay
# Design: key: below the threshold = too weak to quantify, mostly under pKd 3.1 to 4
# run-conditions: plain residues with an end cap or a label only (N-terminal biotin on a linker: ado-ado)
Where pKd equals or exceeds 4, the correct label is YES; where it does not, the label is NO.

[in] Please tell me: is the binder KIEDVEITLV [FCHSD2, O94868] at or over 4 in terms of pKd?
[out] YES

[in] Could you do the same for QLKSGRDSTV [TMEM178A, Q8NBL3] , please?
[out] NO

[in] Note, next up: SSSVNVSSNL [CXCR1, P25024]
[out] NO

[in] Would you kindly repeat that for QQGLLPHSSC [TYRO3, Q06418] ?
[out] NO

[in] Ok, now GNDPDRGTSI [GRID2, O43424]
[out] YES
